Collected pIC50 values appear next to each entry.
# testSystem: PRMT5 (Homo sapiens)
# Construct: purchased Viva (custom protein)
# Sequence (O14744 whole entry): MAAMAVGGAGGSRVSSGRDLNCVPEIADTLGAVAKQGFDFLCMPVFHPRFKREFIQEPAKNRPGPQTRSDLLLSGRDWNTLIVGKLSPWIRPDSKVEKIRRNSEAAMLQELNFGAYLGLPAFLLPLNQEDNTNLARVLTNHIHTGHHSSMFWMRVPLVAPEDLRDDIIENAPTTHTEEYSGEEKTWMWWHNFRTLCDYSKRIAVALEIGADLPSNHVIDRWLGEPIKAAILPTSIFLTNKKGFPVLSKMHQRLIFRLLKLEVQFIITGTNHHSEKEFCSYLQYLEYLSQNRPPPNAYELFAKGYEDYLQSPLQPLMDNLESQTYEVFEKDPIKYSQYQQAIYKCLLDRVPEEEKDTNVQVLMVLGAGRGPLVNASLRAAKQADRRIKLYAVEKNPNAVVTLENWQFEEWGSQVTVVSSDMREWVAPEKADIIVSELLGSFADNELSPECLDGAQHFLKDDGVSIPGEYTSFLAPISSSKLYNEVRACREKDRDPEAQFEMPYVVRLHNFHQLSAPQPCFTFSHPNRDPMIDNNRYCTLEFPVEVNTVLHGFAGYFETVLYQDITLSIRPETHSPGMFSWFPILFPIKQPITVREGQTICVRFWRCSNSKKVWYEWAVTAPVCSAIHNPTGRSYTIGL
# Sequence (Q9BQA1 whole entry partner): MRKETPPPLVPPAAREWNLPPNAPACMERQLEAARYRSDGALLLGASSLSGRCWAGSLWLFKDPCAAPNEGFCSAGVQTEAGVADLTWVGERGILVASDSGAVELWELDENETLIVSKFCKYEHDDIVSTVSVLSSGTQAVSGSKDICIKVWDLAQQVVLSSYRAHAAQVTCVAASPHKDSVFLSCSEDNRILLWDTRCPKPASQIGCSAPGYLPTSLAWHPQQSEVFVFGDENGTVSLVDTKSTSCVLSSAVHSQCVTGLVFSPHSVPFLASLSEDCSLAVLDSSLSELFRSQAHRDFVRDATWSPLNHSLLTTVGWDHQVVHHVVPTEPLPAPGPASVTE
# experimentSummary: PRMT5 biochemical IC50 assay with SAM as cofactor
# protocolConditions: PRMT5, SAM as cofactor; read-out: SAM IC50
pIC50: −log10 of the molar value.

These solved cases illustrate the format of a correct answer.
1. Cc1cncc(NC(=O)C(=O)N2C[C@H](C)CC[C@H]2c2ccc(N)cc2)c1 (single isomer, unassigned); 6.30 to 7.30
2. C[C@H]1CC[C@H](c2ccc(S(N)(=O)=O)cc2)N(C(=O)C(=O)Nc2cncc(C(N)=O)c2)C1 (single isomer, unassigned); < 6.30

**Query** For the molecule shown here, Cc1cc(NC(=O)C(=O)N2C[C@H](C)CC[C@H]2c2ccc(F)c(O)c2)cnc1N (racemic) , give the reported pIC50.
**Result** 6.30 to 7.30

**Query** For the molecule shown here, CC(=O)Oc1ccc([C@@H]2CC[C@@H](C)CN2C(=O)C(=O)Nc2cncc(C(N)=O)c2)cc1 (single isomer, unassigned) , give the reported pIC50.
**Result** < 6.30

**Query** Quick check: pIC50 of [2H]c1c([2H])c([C@@]2([2H])CC[C@H](C)CN2C(=O)C(=O)Nc2cncc(C(N)=O)c2)c([2H])c([2H])c1F (racemic) ?
**Result** 6.30 to 7.30

**Query** Query (molecule): Cc1cncc(NC(=O)C(=O)N2C[C@H](C)CC[C@H]2c2ccc(C)c(C)c2)c1 (single isomer, unassigned) ; field requested: pIC50
**Result** 6.30 to 7.30

Hello, the source for this data is patent US11999727B2, in case you need it.
